Can you tell me MIC for the items I'm about to list?
System: Pseudomonas aeruginosa A3
Run Description: antibacterial spectrum, minimal inhibitory concentration
Assay type: cell-based
Assay Setup: Pseudomonas aeruginosa, A3, read-out: Minimal inhibitory concentration
# unit: µg/mL | format: bare number

Q: Can you look up the measured MIC of CC(N)C1CCC(N)C(OC2C(N)CC(O[C@H]3O[C@H](CO)[C@@H](O)[C@H](N)[C@H]3O)C(N(C)C(=O)CN)C2O)O1 (stereo partly shown) for me?
Ans: 6.25

Q: Same question, CC(N)C1CCC(N)C(OC2C(N)CC(O[C@@H]3O[C@H](CO)[C@@H](O)[C@H](O)[C@H]3O)C(N(C)C(=O)CN)C2O)O1 (stereo partly shown) this time
Ans: 12.5

Q: Same question, CC(N)C1CCC(N)C(OC2C(N)CC(OCC(O)CCN)C(N(C)C(=O)CN)C2O)O1 (stereo not shown) this time
Ans: 3.13

Q: Same question, CC(N)C1CCC(N)C(OC2C(N)CC(OCC(O)CO)C(N(C)C(=O)CN)C2O)O1 (stereo not shown) this time
Ans: 6.25
